- system.under.test: T1, soluble recombinant human lymphotoxin α1β2 (human, UniProt P01374 35-205, limits assumed)
- T1 sequence 1: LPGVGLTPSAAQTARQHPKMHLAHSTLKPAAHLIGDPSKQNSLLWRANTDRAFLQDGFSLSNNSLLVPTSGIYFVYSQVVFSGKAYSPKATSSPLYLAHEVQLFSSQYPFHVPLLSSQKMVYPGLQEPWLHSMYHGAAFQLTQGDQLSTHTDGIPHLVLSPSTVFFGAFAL
- T1 sequence 2: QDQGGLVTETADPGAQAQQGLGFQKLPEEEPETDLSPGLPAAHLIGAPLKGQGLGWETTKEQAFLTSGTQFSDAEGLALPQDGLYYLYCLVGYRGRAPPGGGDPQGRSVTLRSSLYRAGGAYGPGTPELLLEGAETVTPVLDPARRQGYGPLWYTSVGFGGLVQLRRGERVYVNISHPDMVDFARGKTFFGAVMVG
- experiment.notes: cell-based or functional assay
I'd appreciate it if you could supply Maximum % Inhibition of IL-8 release values for the items below.
Report the figure in % without appending any unit label.

**Query** Output measured Maximum % Inhibition of IL-8 release for this item: LT105 (P2E9.7) (antibody, IgG1, V domains shown, The humanized versions were tested only for solubility; also called mAb LT105) VH: DVQLQESGPGLVKPSQSLSLTCSVTGYSITSGYYWNWIRQFPGNKLEGMGYISYDGSNNYNPSLKNRISITRDSSKNQFFLKLNSVTAEDSGTYYCARDAYSYGMDYWGQGTSVTVSS VL: DIVLTQSPASLAVSLGQRATISCRASESVDNYGISFMHWYQQKPGQPPKLLIYRASNLESGIPARFSGSGSRTDFTLTINPVETDDVATFYCQQSNKDPYTFGGGTKLEIK
**Result** 100

**Query** Output measured Maximum % Inhibition of IL-8 release for this item: LT107 (P5C4.1) (antibody, V domains shown, Murine monoclonal antibody, kappa light chain; also called mAb LT107) VH: QVQLKQSGPGLVQPSQNLSITCTVSGFSLTNYGIHWIRQPPGKGLEWLGVIWSGGSTDHNAAFISRLSISKDNSKSQVFFTMNSLEVDDTAIYYCARNRAYYRYEGGMDYWGQGTSVTVSS VL: DIKMTQSPSSMYASLGERVTITCKASQDINTYLNWFQQKPGKSPMTLIYRADRLLDGVPSRFSGSGSGQDYSLTISSLEDEDMGIYYCQQYDDFPLTFGAGTKLELK
**Result** 95
